From: PubChem BioAssay (NCI)

Tested on: SK-OV-3 ovarian
test-name: NCI tumour cell line growth inhibition, 48 h
Parameter log10(TGI): see the listing below.
Units before log transform: µM; reported quantity: TGI; transform: log10.

# molecule, metric, measured-result
measured = [
    ("COc1ccc(C2=Nc3c(nc(SC)[nH]c3=O)NC(c3ccccc3)C2)cc1 (stereo not drawn)", "log10(TGI)", 1.72),
    ("COc1ccc(S(=O)(=O)Nc2cc(Sc3cccc4cccnc34)c(O)c3ccccc23)cc1", "log10(TGI)", 1.16),
    ("CCN1CCC(O)(/C=C/c2ccccc2)C(C(=O)/C=C/c2ccccc2)C1 (stereo not drawn)", "log10(TGI)", 1.29),
    ("CC(=O)OC1=C(CC(C)(C)C)C(=O)c2ccccc2C1=O", "log10(TGI)", 1.82),
]

Pending molecule:
Exercise: Field: log10(TGI) (SK-OV-3 ovarian). Entry: C=Cc1cc(OC)c2c(c1)c(=O)oc1c2cc(OC)c2c(O)ccc(C3OC(C(C)O)C(O)C3O)c21 (stereo not drawn)
Key: -0.14
